- experimental.target: human PRMT6 (Homo sapiens)
- Construct: Flag-PRMT6-His; made in house; host or cells: HEK 293F cells (BacMam baculovirus, pFastBacMam)
- Sequence (Q96LA8 with tags, fused parts or gaps): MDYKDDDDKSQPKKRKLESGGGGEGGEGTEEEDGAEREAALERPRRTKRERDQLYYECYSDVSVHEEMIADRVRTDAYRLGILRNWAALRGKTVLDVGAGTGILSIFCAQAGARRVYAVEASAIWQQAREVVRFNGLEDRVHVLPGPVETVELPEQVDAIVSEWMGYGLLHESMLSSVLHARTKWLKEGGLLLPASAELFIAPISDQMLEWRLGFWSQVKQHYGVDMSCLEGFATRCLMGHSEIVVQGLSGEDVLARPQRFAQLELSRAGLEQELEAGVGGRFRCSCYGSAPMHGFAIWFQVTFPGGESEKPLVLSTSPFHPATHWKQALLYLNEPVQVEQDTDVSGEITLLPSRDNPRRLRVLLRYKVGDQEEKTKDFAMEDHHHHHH
- assay.overview: PRMT6 Biochemical Assay
- cond: peptide substrate, 3H-SAM Flashplate assay; read-out: PRMT6 IC50
quantity.measured: IC50 (nM)

INSERT INTO measurements (compound, experimental_target, result_units, reported) VALUES
  ('CNCCN(C)Cc1c[nH]nc1-c1ccc(N(C)CCCOc2ccc(OC)cc2)cc1 [Compound 12]', 'human PRMT6 (Homo sapiens)', 'nM', 14.6),
  ('CNCCN(C)Cc1c[nH]nc1-c1cc(OCCCO)cc(C(F)(F)F)c1 [Compound 130]', 'human PRMT6 (Homo sapiens)', 'nM', 619),
  ('CCN(CCOc1ccc(OC)cc1)c1ccc(-c2n[nH]cc2CN(C)CCNC)cc1 [Compound 20]', 'human PRMT6 (Homo sapiens)', 'nM', 16.9),
  ('CNCCN(C)Cc1c[nH]nc1-c1ccc(OCCOc2cccc(C(O)CO)c2)cc1 (stereo not shown) [Compound 148]', 'human PRMT6 (Homo sapiens)', 'nM', 6.32),
  ('CNCCN(C)Cc1c[nH]nc1-c1ccc(OCCOc2ccc(C(F)(F)F)cc2)cc1 [Compound 138]', 'human PRMT6 (Homo sapiens)', 'nM', 9.77);

[a] CNCCN(C)Cc1c[nH]nc1-c1ccc(OCC2COC2)cc1 [Compound 91]
[b] CNCCN(C)Cc1c[nH]nc1-c1ccc(N(C)CCCOc2ccc(OC)cc2)cc1 [Compound 136]
// returns a or b , whichever has the lower IC50 Write down the label attached to your selection.
b

[A] CNCCN(C)Cc1c[nH]nc1-c1cc(F)c(OCC2CC2)c(C(F)(F)F)c1 [Compound 3]
[B] CN(CCN)Cc1c[nH]nc1-c1ccc(N2CCOCC2)cc1 [Compound 124]
[C] CNCCN(C)Cc1c[nH]nc1-c1cc(OCCOC)cc(C(C)(C)C)c1 [Compound 109]
Order the items by recorded IC50; the first position goes to the largest value. Dear reader, please state the labels in the requested order.
C, B, A

[a] CNCCN(C)Cc1c[nH]nc1-c1ccc(OCCOc2cccc(CO)c2)cc1 [Compound 143]
[b] CCN(Cc1ccncc1)c1ccc(-c2n[nH]cc2CN(C)CCNC)cn1 [Compound 113]
Two entries are listed, a and b . Which one carries the higher IC50? Write down the label attached to your selection.
b
(b: 105 nM, a: 4.48 nM)

[1] CCN(c1ccc(-c2n[nH]cc2CN(C)CCNC)cn1)C1CCOCC1 [Compound 127]
[2] CNCCN(C)Cc1cnn(C)c1-c1ccc(OC2CCOCC2)cc1 [Compound 88]
// returns 1 or 2 , whichever has the lower IC50 Write down the label attached to your selection.
2
(2: 23.5 nM, 1: 3450 nM)

[a] CNCCN(C)Cc1ccnn1C1CCC2(CCOC2)CC1 (stereo not shown) [Compound 54]
[b] CNCCN(C)Cc1c[nH]nc1-c1ccc(OCCOc2ccc(C)cc2)cc1 [Compound 42]
// returns a or b , whichever has the lower IC50 Write down the label attached to your selection.
b
(b: 4.98 nM, a: 32.9 nM)

[a] CNCCN(C)Cc1c[nH]nc1-c1cc(F)c(OC2COC2)c(C(F)(F)F)c1 [Compound 23]
[b] CNCCN(C)Cc1c[nH]nc1-c1ccc(CC(C)C)c(C(F)(F)F)c1 [Compound 50]
[c] COCCOc1cc(-c2n[nH]cc2CN(C)CCN)cc(C(F)F)c1 [Compound 29]
[d] CNCCN(C)Cc1c[nH]nc1-c1ccc(OCCOc2cccc(N3CCOCC3)c2)cc1 [Compound 49]
[e] CNCCN(C)Cc1c[nH]nc1-c1ccc(OC2CC(OCCC(O)CO)C2)cc1 (stereo not shown) [Compound 149]
Ascending sort, IC50. Dear reader, please state the labels in the requested order.
d, a, e, b, c
(d: 7.05 nM, a: 16.9 nM, e: 28.6 nM, b: 67.7 nM, c: 276 nM)

[P] CNCCN(C)Cc1c[nH]nc1-c1cc(F)c(Cl)c(C(F)(F)F)c1 [Compound 27]
[Q] CNCCN(C)Cc1c[nH]nc1-c1ccc2oc(C(C)C)nc2c1 [Compound 81]
[R] CNCCN(C)Cc1c[nH]nc1-c1ccc(OCCOc2ccc(OCCOC)cc2)cc1 [Compound 72]
Ascending sort, IC50. Dear reader, please state the labels in the requested order.
R, P, Q
(R: 10.1 nM, P: 21.4 nM, Q: 44.5 nM)
